In this section, each of the molecules is paired with its reported melting point.

Solved cases (5 shown):
[
  {
    "Molecule": "Nc1ncc(C#Cc2ccc(Cl)cc2)c(OC2CCC(=O)CC2)n1",
    "melting point": "168 to 172 °C"
  },
  {
    "Molecule": "Nc1ncc(C#Cc2ccccc2)c(NCCOCCO)n1",
    "melting point": "128 to 129 °C"
  },
  {
    "Molecule": "Nc1ncc(C#Cc2ccc(Cl)cc2)c(NCCOCCO)n1",
    "melting point": "176 to 180 °C"
  },
  {
    "Molecule": "O[C@H]1CC[C@H](Nc2ncncc2C#Cc2ccc(Cl)cc2)CC1 (hydrate or solvate)",
    "melting point": "151 to 155 °C"
  },
  {
    "Molecule": "Nc1ncc(C#Cc2ccc(Cl)cc2)c(N[C@H]2CC[C@H](O)CC2)n1",
    "melting point": "215 to 218 °C"
  }
]

Look at this molecule and give its reported melting point. `Cl.Oc1ccc(Nc2ncncc2C#Cc2ccccc2)cc1`
223 to 225 °C (dec.)

Look at this molecule and give its reported melting point. `COc1ccc(C#Cc2cnc(N)nc2Nc2ccc(O)cc2)cc1.Cl`
220 to 230 °C (dec.)
